- System under test: Luciferin 4-monooxygenase (Photinus pyralis)
- Method: qHTS assay to identify small molecule inhibitors of firefly luciferase (AID 1224835); further: nearly all actives have a fitted effect of over 25% in size
- Study conditions: purified P. pyralis luciferase, luminescence inhibition; series mostly up to 115 µM
Results filed as inconclusive are left out. Calls of active or inactive are those of the source. The call rests on the fitted dose curve; in most records, active means well fitted inhibition curve with a large enough effect in the repeat runs; inconclusive means weak or mixed curves; inactive means flat fitted curve, though single readings scatter.
A correct response names exactly one class from T (active), F (inactive)

Lookup: Record request — test call for CCC(C)(C)c1ccc(CC(C)CN2C[C@@H](C)O[C@@H](C)C2)cc1 (stereo not given in full)
Found: F

Lookup: Record request — test call for O=c1[nH]cccc1O
Found: F

Lookup: Record request — test call for CCCCCCCCCCCC(=O)Cl
Found: T

Lookup: Record request — test call for COCCC(=O)OC
Found: F

Next:
Lookup: Record request — test call for CN1CCN(CCCN2c3ccccc3Sc3ccc(C(F)(F)F)cc32)CC1
Found: F

Lookup: Record request — test call for C=CC(C)(C)O
Found: F

Lookup: Record request — test call for CCN(CC)c1ccc(N=Nc2ccccc2)cc1
Found: T

Lookup: Record request — test call for O=C1CCC/C=C\CCCCCCCCCC1
Found: F

Lookup: Record request — test call for CCCCCCCCCC[N+](C)(CCCCCCCCCC)CCC[Si](OC)(OC)OC
Found: T
